Biological target: isoprenylated protein endoprotease
Assay: Inhibition of the isoprenylated protein endoprotease by halomethyl ketones (preincubation, 20-fold dilution, Kitz-Wilson)
Format: biochemical, bovine
Details: solubilized endoprotease preparation, 37° C., Kitz-Wilson; read-out: K1
Protocol: A typical procedure of inhibition is given here to illustrate the details of this procedure. A CHAPSO-solubilized protein preparation (2.5 mg/mL) or a partially […] protein preparation (0.17 mg/mL) was incubated with chloromethyl ketone inhibitors at 37° C. for 30 minutes. Aliquots were removed at timed intervals and diluted with assay buffer E for the solubilized preparation of with assay buffer D for the partially purified protein preparation in 20-fold. […]
ENDPOINT LABEL: Ki
The answer should read as a number with its unit following.

Any idea what its Ki is? The molecule is Cc1ccc(S(=O)(=O)N[C@@H](Cc2ccccc2)C(=O)CCl)cc1 [TPCK]
1100 µM
